Tested on: HL-60(TB) leukemia
Test: NCI tumour cell line growth inhibition, 48 h; in the data active means GI50 below about 0.43 µM; inactive means the rest
Give your call using only these classes: y = active, n = inactive

Example cases with answers are listed next.
1) COc1ccc2nc3cc(Cl)ccc3c(Nc3ccc(O)c(CN4CCCC4)c3)c2c1 ... n
2) CC(C)c1ccc2c(c1)c(SC(C)(C)C)c(CC(C)(C)C(=O)O)n2Cc1ccc(Cl)cc1 ... n
3) O=C1C2=C(Nc3cc([N+](=O)[O-])ccc3N2)OC1c1ccc(C2OC3=C(Nc4ccc([N+](=O)[O-])cc4N3)C2=O)cc1 (centres undefined) ... y

Here's the next entry for you.
Enquiry: Dear colleague, could you share the recorded outcome for COc1ccc(-c2cn(-c3cc(OC)c(OC)c(OC)c3)c(=O)n2-c2ccccc2)cc1 when you have a moment?
Return: n

###

Could you please report measured GI50 for the items listed next?
Tested on: HS 578T breast
Test: NCI tumour cell line growth inhibition, 48 h

1) CCCCCCCCCCCCNC(=O)[C@H]1CSC(c2ccsc2)N1 (some centres undefined) ... 1.17 µM
2) N#Cc1c(-c2ccc(Cl)cc2)csc1NC(=O)Nc1cccc(C(F)(F)F)c1 ... 3.25 µM
3) Cc1ccc(-c2cc(C(Cl)Cl)on2)cc1 ... > 100 µM
4) Cc1ccc2c(C(C[N+](=O)[O-])c3ccco3)c(-c3ccccc3)[nH]c2c1 (centres undefined) ... 17.5 µM
5) CC(C)c1ccc2c(c1)c(SC(C)(C)C)c(CC(C)(C)C(=O)O)n2Cc1ccc(Cl)cc1 ... 11.4 µM
6) Cc1cc(S(N)(=O)=O)c(S/C(=N\NS(=O)(=O)c2ccccc2)c2ccc(Cl)c(Cl)c2)cc1Cl ... 29.9 µM
7) COc1ccc(-c2nn3ncccc3c2-c2ccnc(Nc3cccc(C(F)(F)F)c3)n2)cc1 ... 8.29 µM
8) COc1ccc(-c2cn(-c3cc(OC)c(OC)c(OC)c3)c(=O)n2-c2ccccc2)cc1 ... 53.2 µM

Quick request: GI50 for each listed item, please.
1. CC(C)(C)OC(=O)n1c(Cl)c(C(=O)N=C=S)c2ccccc21
2. Cc1cc(Nc2cc(N3CCN(C)CC3)nc(C#Cc3ccccc3)n2)n[nH]1
3. COc1ccccc1-c1nccc(COc2ccccc2C[C@@H](Oc2ncnc3sc(-c4ccc(F)cc4)c(-c4ccc(OCCN5CCN(C)CC5)c(Cl)c4C)c23)C(=O)O)n1
4. CCCCCCCCCCCCCCCCCCNC(=O)[C@H]1CSC(c2ccc(F)c(OC)c2)N1 (some centres undefined)
5. Fc1ccc(-c2cc(-c3cn[nH]c3-c3ccccn3)ccn2)cc1
6. Cc1ccc(S(=O)c2ccc([N+](=O)[O-])c3nonc23)cc1 (centres undefined)

Return:
25.5 µM
1.74 µM
0.515 µM
1.24 µM
> 25 µM
21.1 µM

###

Tested on: SK-MEL-2 melanoma
Assay: NCI tumour cell line growth inhibition, 48 h
Please go through the items and note down their TGI.
One number for each entry, in µM.

Observe how each entry below is paired with its result.
1. C=C(C[N+](C)(C)C)N/N=C/c1oc(-c2ccc(OC)c(OC)c2)c(-c2ccc(OC)c(OC)c2)c1[N+](=O)[O-] ... 31.9
2. OC(CCN1CCN(CCOC(c2ccc(F)cc2)c2ccc(F)cc2)CC1)c1ccc(Br)cc1 (centres undefined) ... 18.8
3. Cc1ccc2nc(Nc3ccccc3C)c(Nc3ccccc3C)nc2c1 ... 31.7
4. COc1ccccc1-c1nccc(COc2ccccc2C[C@@H](Oc2ncnc3sc(-c4ccc(F)cc4)c(-c4ccc(OCCN5CCN(C)CC5)c(Cl)c4C)c23)C(=O)O)n1 ... 0.0367
5. CC12O[Te]34OC1(C)C(C)(O3)C2(C)O4 ... 29.8

Provide reported TGI for each item, in the same order as listed.
1. O=C(O[C@@H](/C=C/c1ccccc1)P1(=O)N(Cc2ccccc2)[C@@H]2CCCC[C@H]2N1Cc1ccccc1)c1ccccc1
2. O=C1C=CC(=O)c2c(O)c(N3CCN(c4ncccn4)CC3)c(Cl)c(O)c21
3. CCCCCCCCCCCCCCCCCCNC(=O)[C@H]1CSC(c2ccc(F)c(OC)c2)N1 (some centres undefined)
4. COc1ccc2c(c1)CCC(CN1CCN(CCOC(c3ccccc3)c3ccccc3)CC1)C2O (centres undefined)
5. O=C1c2cccnc2C(=O)c2c1nc1ccccc1c2-c1ccc2c3c(nc4ccccc42)C(=O)c2cccnc2-c13

Return:
1. 5.42
2. 3.47
3. 1.67
4. 33
5. 14.1

Enquiry: # TGI lookup, item C(/C=C/N1CCCC1)=C\c1nc(N2CCCC2)c2ccccc2n1
Return: 39.1
